- TARGET UNDER TEST: TRPML1 (Homo sapiens, UniProt Q9GZU1, L15A/L16A)
- Sequence (Q9GZU1 with tags, fused parts or gaps L15A/L16A): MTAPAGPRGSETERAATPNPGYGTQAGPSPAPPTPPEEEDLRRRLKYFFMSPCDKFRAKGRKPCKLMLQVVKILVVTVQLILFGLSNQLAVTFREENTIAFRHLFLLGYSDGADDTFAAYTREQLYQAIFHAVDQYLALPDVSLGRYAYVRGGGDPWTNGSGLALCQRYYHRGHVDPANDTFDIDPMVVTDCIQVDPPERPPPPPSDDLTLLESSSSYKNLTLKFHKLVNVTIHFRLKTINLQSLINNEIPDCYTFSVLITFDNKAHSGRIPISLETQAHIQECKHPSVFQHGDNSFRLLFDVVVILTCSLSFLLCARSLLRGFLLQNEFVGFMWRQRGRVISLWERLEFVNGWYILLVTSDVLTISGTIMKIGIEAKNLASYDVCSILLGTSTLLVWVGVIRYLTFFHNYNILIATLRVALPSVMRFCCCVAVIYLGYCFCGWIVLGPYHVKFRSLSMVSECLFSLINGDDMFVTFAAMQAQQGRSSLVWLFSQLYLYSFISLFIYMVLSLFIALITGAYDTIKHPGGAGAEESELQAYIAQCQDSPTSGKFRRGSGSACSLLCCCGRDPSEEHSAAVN
- TEST: GCaMP surface assay
PROPERTY MEASURED: pEC50
Give bare numbers, as −log10 of the molar value.

List pEC50 for every entry below, keeping the order given.
1. Cc1ccc(S(=O)(=O)Nc2ccccc2N2CCCCC2)s1 [Compound 127, reference compound]
2. CN(C)S(=O)(=O)c1ccc(S(=O)(=O)Nc2ccccc2N2CCN(c3ccc(Cl)cc3F)CC2)cc1

1: 5.58; 2: 6.34

###

- TARGET UNDER TEST: hTRPML1 (Homo sapiens, UniProt Q9GZU1)
- Sequence (Q9GZU1 whole entry L15A/L16A/L577A/L578A, form open): as the sequence (Q9GZU1 with tags, fused parts or gaps L15A/L16A) above
- TEST: TRPML1 fluorescent (Fluo-4) assay
- Type: cell-based
- Set-up: fused on or other part: Possibly a GCaMP calcium sensor fused on, for the parenthetic 'GCaMP surface assay' value
- TEST CONTEXT: read-out: TRPML1 activation EC50 (Table 2, number)
PROPERTY MEASURED: EC50 (µM)
One number for each entry, in µM.

Could you tell me which EC50 is on file for CC1CC(C)(C)N(C(=O)CN2C(=O)c3ccccc3C2=O)c2ccccc21 (stereo not shown) [Compound 126, reference compound] ? 3.52

###

- TARGET UNDER TEST: hTRPML2 (Homo sapiens)
- Construct: expressed in transfected cells; host or cells: HEK-293 Trex (by analogy, 'performed as above')
- Sequence (Q8IZK6 1-566): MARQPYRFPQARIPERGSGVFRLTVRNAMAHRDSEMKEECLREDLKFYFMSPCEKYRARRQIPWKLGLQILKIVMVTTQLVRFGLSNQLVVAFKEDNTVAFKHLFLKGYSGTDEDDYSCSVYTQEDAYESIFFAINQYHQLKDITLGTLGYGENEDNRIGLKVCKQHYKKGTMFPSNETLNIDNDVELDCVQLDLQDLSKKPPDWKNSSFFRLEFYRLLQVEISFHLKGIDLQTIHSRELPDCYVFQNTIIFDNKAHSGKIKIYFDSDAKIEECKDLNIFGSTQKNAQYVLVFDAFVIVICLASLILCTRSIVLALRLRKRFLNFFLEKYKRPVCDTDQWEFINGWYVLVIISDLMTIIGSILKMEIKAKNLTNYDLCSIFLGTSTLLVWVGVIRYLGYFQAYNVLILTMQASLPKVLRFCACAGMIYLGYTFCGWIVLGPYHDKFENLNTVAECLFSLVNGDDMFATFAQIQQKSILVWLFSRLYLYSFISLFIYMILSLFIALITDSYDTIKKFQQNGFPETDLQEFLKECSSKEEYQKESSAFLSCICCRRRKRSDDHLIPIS
- TEST: TRPML2 fluorescent (Fluo-4) assay
- Type: cell-based
- TEST CONTEXT: activation; read-out: Secondary Screening: Fluo-4: hTRPML2: EC50
PROPERTY MEASURED: EC50

Here's what some known entries look like.
CN(C)S(=O)(=O)c1ccc(S(=O)(=O)N[C@@H]2CCCCC[C@@H]2N2CCN(c3ccc(Cl)cc3F)CC2)cc1 (relative stereo) [Compound 122]; 1 to 5 µM
CN([C@H]1CCN(c2ccc(Cl)cc2F)C1)[C@H]1CCCC[C@@H]1NS(=O)(=O)c1ccc(S(=O)(=O)N(C)C)cc1 (stereo in doubt) [Compound 119]; > 5 µM
CN(c1ccccc1NS(=O)(=O)c1ccc(S(=O)(=O)N(C)C)cc1)C1CCN(C(=O)Oc2ccccc2)C1 (stereo not drawn) [Compound 123]; 1 to 5 µM

// each listed compound needs a value for EC50
1. CN(c1ccccc1NS(=O)(=O)c1ccc(S(C)(=O)=O)cc1)C1CCN(c2ccc(Cl)cc2F)C1 (stereo not drawn) [Compound 113]
2. CN(c1ccccc1NS(=O)(=O)c1ccc(S(=O)(=O)N(C)C)cc1)C1CCN(c2ccc(Cl)cc2F)C1 (stereo not drawn) [Compound 101]
3. CN(C1CCN(c2ccccc2F)C1)[C@H]1CCCC[C@@H]1NS(=O)(=O)c1ccc(S(=O)(=O)N(C)C)cc1 (relative stereo) [Compound 121]
4. CN(c1ccccc1NS(=O)(=O)c1ccc(S(=O)(=O)N(C)C)cc1)C1CCN(C(=O)OC2CCCCC2)C1 (stereo not drawn) [Compound 124]
5. CN(C1CCCC[C@@H]1NS(=O)(=O)c1ccc(S(=O)(=O)N(C)C)cc1)[C@@H]1CCN(c2ccc(Cl)cc2F)C1 (stereo partly drawn) [Compound 118]
6. CN(C)S(=O)(=O)c1ccc(S(=O)(=O)N[C@@H]2CCCCC[C@H]2N2CCN(c3ccc(Cl)cc3F)CC2)cc1 (relative stereo) [Compound 120]

> 5 µM
< 0.3 µM
1 to 5 µM
1 to 5 µM
> 5 µM
1 to 5 µM

###

Consider the following compounds; for each one, report its pEC50.
- TARGET UNDER TEST: hTRPML3 (Homo sapiens, UniProt Q8TDD5)
- Construct: expressed in transfected cells; host or cells: HEK-293 Trex (by analogy, 'performed as above')
- Sequence (Q8TDD5 whole entry): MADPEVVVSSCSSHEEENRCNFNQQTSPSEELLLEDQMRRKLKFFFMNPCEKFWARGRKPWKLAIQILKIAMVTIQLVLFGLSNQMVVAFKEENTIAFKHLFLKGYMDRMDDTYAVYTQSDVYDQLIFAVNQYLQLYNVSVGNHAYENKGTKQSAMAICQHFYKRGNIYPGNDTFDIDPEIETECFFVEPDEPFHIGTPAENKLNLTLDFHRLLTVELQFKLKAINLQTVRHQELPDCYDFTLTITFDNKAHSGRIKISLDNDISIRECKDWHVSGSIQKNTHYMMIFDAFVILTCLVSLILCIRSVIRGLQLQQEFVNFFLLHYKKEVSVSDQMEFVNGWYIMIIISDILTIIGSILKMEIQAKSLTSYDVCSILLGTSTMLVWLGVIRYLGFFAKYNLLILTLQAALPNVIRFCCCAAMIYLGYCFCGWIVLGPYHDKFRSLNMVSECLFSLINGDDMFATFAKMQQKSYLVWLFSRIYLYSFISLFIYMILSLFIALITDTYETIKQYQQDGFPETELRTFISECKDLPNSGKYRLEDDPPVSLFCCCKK
- TEST: TRPML3 fluorescent (Fluo-4) assay
- Assay type: cell-based
- TEST CONTEXT: activation; read-out: Secondary Screening: Fluo-4: hTRPML3: EC50
pEC50: −log10 of the molar value.

CN(C)S(=O)(=O)c1ccc(S(=O)(=O)Nc2ccccc2C2CCN(c3ccc(Cl)cc3F)CC2)cc1 [Compound 108]; 6.00 to 6.52
CN(C)S(=O)(=O)c1ccc(S(=O)(=O)N[C@H]2CCCC[C@@H]2N2CCN(c3ccccc3F)CC2)cc1 (relative stereo) [Compound 116]; 6.00 to 6.52
CN(C)S(=O)(=O)c1ccc(S(=O)(=O)N[C@@H]2CCCCC[C@H]2N2CCN(c3ccc(Cl)cc3F)CC2)cc1 (relative stereo) [Compound 120]; 6.00 to 6.52
CN(c1ccccc1NS(=O)(=O)c1ccc(S(=O)(=O)N(C)C)cc1)C1CCN(C(=O)OC2CCCCC2)C1 (stereo not drawn) [Compound 124]; 6.00 to 6.52
CN(c1ccccc1NS(=O)(=O)c1ccc(S(=O)(=O)N(C)C)cc1)C1CCN(c2ccccc2F)C1 (stereo not drawn) [Compound 112]; > 6.52

Fill in the blank: the reported pEC50 of CN(C1CCN(c2ccccc2F)C1)[C@H]1CCCC[C@@H]1NS(=O)(=O)c1ccc(S(=O)(=O)N(C)C)cc1 (relative stereo) [Compound 121] is ____. 6.00 to 6.52

###

Assign EC50 to each entry below.
- TARGET UNDER TEST: UniProt:Q9GZU1
- TEST: TRPML1 fluorescent (Fluo-4) assay
- Type: cell-based
- Parameters: Secondary Screening: Fluo-4: hTRPML1: EC50 (M); HEK-293 Trex cells expressing hTRPML1
- TEST CONTEXT: activation; HEK-293 Trex cells expressing hTRPML1; read-out: Secondary Screening: Fluo-4: hTRPML1: EC50

CN(C)S(=O)(=O)c1ccc(S(=O)(=O)Nc2ccccc2C2CCN(c3ccc(Cl)cc3F)CC2)cc1; 1000 to 5000 nM
CN(C)S(=O)(=O)c1ccc(S(=O)(=O)N[C@@H]2CCCCC[C@H]2N2CCN(c3ccc(Cl)cc3F)CC2)cc1 (relative stereo); < 300 nM
CN(c1ccccc1NS(=O)(=O)c1ccc(S(=O)(=O)N(C)C)cc1)[C@@H]1CCN(c2ccc(Cl)cc2F)C1; 300 to 1000 nM
Cc1ccc(S(=O)(=O)N[C@H]2CCCC[C@@H]2N2CCN(c3ccc(Cl)cc3F)CC2)cc1 (relative stereo); 300 to 1000 nM
CN(c1ccccc1NS(=O)(=O)c1ccc(S(=O)(=O)N(C)C)cc1)[C@H]1CCN(c2ccc(Cl)cc2F)C1; < 300 nM

Consider the following items and state reported EC50 for each.
1. CN(C)S(=O)(=O)c1ccc(S(=O)(=O)N[C@H]2CCCC[C@@H]2N2CCN(c3ccc(Cl)cc3F)CC2)cc1
2. CN(c1ccccc1NS(=O)(=O)c1ccc(S(C)(=O)=O)cc1)C1CCN(c2ccc(Cl)cc2F)C1 (stereo not shown)

["300 to 1000 nM", "300 to 1000 nM"]

###

- TARGET UNDER TEST: hTRPML2 (Homo sapiens, UniProt Q8IZK6)
- Construct: expressed in transfected cells; host or cells: HEK-293 Trex (by analogy, 'performed as above')
- TEST: TRPML2 fluorescent (Fluo-4) assay
- Type: cell-based
- TEST CONTEXT: read-out: TRPML2 activation EC50 (Table 2, number)
PROPERTY MEASURED: EC50 (µM)
Numbers only, in µM.

Quick one: EC50 for CC1CC(C)(C)N(C(=O)CN2C(=O)c3ccccc3C2=O)c2ccccc21 (stereo not shown) [Compound 126, reference compound] ? 5.41

###

- TARGET UNDER TEST: hTRPML3 (Homo sapiens, UniProt Q8TDD5)
- Construct: expressed in transfected cells; host or cells: HEK-293 Trex (by analogy, 'performed as above')
- TEST: TRPML3 fluorescent (Fluo-4) assay
- Format: cell-based
- TEST CONTEXT: read-out: TRPML3 activation EC50 (Table 2, number)
PROPERTY MEASURED: EC50 (µM)
One number for each entry, in µM.

Request the reported EC50 associated with CC1CC(C)(C)N(C(=O)CN2C(=O)c3ccccc3C2=O)c2ccccc21 (stereo not shown) [Compound 126, reference compound] 1.58
